- Tested on: biotinyl-Ile-oxazolone
- test.summary: self-aminoacylation, catalytic enhancement (BIO) (fold over background); higher = more active; k-Seq, kA / k0A0; sequences stand for … in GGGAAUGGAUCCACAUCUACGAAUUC…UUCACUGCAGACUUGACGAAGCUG
This sample holds only a part of the variants without activity.
Kindly state self-aminoacylation for each of the entries shown.

Below are worked cases with known answers.
CCACAGUUCAAGCAAUCGGUA [Fam1B.1 aminoacylation ribozyme variant] | 1.08
CUACUUCACACAAUCGGCCUG [Fam1A.1 aminoacylation ribozyme variant] | 1.69
CUACUCCAAACAAUCCGUCUG [Fam1A.1 aminoacylation ribozyme variant] | 0.838

For the 6 sequences below, give their self-aminoacylation values.
1. CCACACGUCAAGAAAUCGGUC [Fam1B.1 aminoacylation ribozyme variant]
2. CCACACUGCAAGCAAUAGGUC [Fam1B.1 aminoacylation ribozyme variant]
3. CCACACUUCCAGCAAUCGGUC [Fam1B.1 aminoacylation ribozyme variant]
4. AUUCUCCUAGGCCAUCGGGUG [Fam2.2 aminoacylation ribozyme variant]
5. CUACUUCAAACUACCGGUCUG [Fam1A.1 aminoacylation ribozyme variant]
6. CCACACUUCAACCAAUCAGUC [Fam1B.1 aminoacylation ribozyme variant]

stdout:
1: 1.28; 2: 0.905; 3: 1.14; 4: 3.49; 5: 1.1; 6: 0.978

---

- Tested on: biotinyl-Phe-oxazolone
- test.summary: self-aminoacylation, catalytic enhancement (BFO) (fold over background); higher = more active; k-Seq, kA / k0A0; sequences stand for … in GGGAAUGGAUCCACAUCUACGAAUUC…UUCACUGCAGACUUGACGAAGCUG
Fewer inactive variants are shown than the library holds.
Output schema: class label derived from self-aminoacylation. Mapping: low interval (below 1), middle interval (1 to below 3), high interval (3 or more)

AUUCACCUACGUCAUGGGGUG [Fam2.2 aminoacylation ribozyme variant] | high interval

stdin: Just checking, what class would you give AAGUAUGCUAAUAGUCGCUAG [Fam3.1 aminoacylation ribozyme variant] here?
stdout: middle interval

stdin: Moving on to AAGUUUGCACAUAGUCGCAAG [Fam3.1 aminoacylation ribozyme variant]
stdout: low interval

stdin: Moving on to AUUACGCUGGUCAUUGAGUGA [Fam2.1 aminoacylation ribozyme variant]
stdout: high interval

stdin: Moving on to AUUCACCUAGGUCAUCGGGAC [Fam2.2 aminoacylation ribozyme variant]
stdout: middle interval

stdin: Moving on to CCAAACUUCAAGCCAUCGGUC [Fam1B.1 aminoacylation ribozyme variant]
stdout: middle interval

---

- System: biotinyl-Trp-oxazolone
- test.summary: self-aminoacylation, catalytic enhancement (BWO) (fold over background); higher = more active; k-Seq, kA / k0A0; sequences stand for … in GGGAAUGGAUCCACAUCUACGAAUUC…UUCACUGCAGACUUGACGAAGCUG
Fewer inactive variants are shown than the library holds.
Tick yes (1) if self-aminoacylation is 2 or greater. Tick no (0) if self-aminoacylation is less than 2.

Use these answered entries as a reference point.
AUUACGGUGGUCAUCGAGUGA [Fam2.1 aminoacylation ribozyme variant] | yes (1)
AUUCAACUAGGUCAGCGGGUG [Fam2.2 aminoacylation ribozyme variant] | yes (1)
CUACUUCAUACAAUCUGUCUG [Fam1A.1 aminoacylation ribozyme variant] | no (0)

stdin: Reported self-aminoacylation at or above 2? AUUCACCUAGGUCAUCGGGGG [Fam2.2 aminoacylation ribozyme variant]
stdout: yes (1)

stdin: Moving on to GCACACCUCAAGCAAUCGGUC [Fam1B.1 aminoacylation ribozyme variant]
stdout: yes (1)

stdin: Moving on to CUACUUCAAACAAUAGGUCGG [Fam1A.1 aminoacylation ribozyme variant]
stdout: no (0)

stdin: Moving on to AUUACCCUGGUCUUCGUGUGA [Fam2.1 aminoacylation ribozyme variant]
stdout: no (0)

---

- Tested on: biotinyl-Leu-oxazolone
- test.summary: self-aminoacylation, catalytic enhancement (BLO) (fold over background); higher = more active; k-Seq, kA / k0A0; sequences stand for … in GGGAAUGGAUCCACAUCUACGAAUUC…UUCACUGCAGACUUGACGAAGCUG
This sample holds only a part of the variants without activity.
measurement.kind: self-aminoacylation
Give bare numbers.

Below are worked cases with known answers.
AUUACCCUGUUCGUCGAGUGA [Fam2.1 aminoacylation ribozyme variant] | 0.865
AUUACCCUGGUCAGAGAGUGA [Fam2.1 aminoacylation ribozyme variant] | 6.71
AUUACCCUGUUCACCGAGUGA [Fam2.1 aminoacylation ribozyme variant] | 11.6
AUUACCCUGGUCAUUGAGCGA [Fam2.1 aminoacylation ribozyme variant] | 1.44
UUUCACCUAGCUCAUCGGGUG [Fam2.2 aminoacylation ribozyme variant] | 2.24

For the 4 sequences below, give their self-aminoacylation values.
1. AUUACCCUGGUUAUCGGGUGA [Fam2.1 aminoacylation ribozyme variant]
2. CCACAUUUCAAGCAAUCGGGC [Fam1B.1 aminoacylation ribozyme variant]
3. CUACUUCAAACUACCGGUCUG [Fam1A.1 aminoacylation ribozyme variant]
4. AAGUUUGUUAAUUGUCGCAAG [Fam3.1 aminoacylation ribozyme variant]

stdout:
1. 13.6
2. 2.78
3. 0.868
4. 0.933

---

Kindly state self-aminoacylation for each of the entries shown.
- System: biotinyl-Leu-oxazolone
- test.summary: self-aminoacylation, catalytic enhancement (BLO) (fold over background); higher = more active; k-Seq, kA / k0A0; sequences stand for … in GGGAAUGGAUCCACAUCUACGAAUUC…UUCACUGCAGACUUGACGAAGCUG
Variants at the floor of the assay were thinned out.
Answers are plain numbers.

Below are worked cases with known answers.
CCACACUUCACGCCAUCGGUC [Fam1B.1 aminoacylation ribozyme variant] | 1.51
AGACACUUCAAGCAAUCGGUC [Fam1B.1 aminoacylation ribozyme variant] | 3.25
AGGUUUGCUAAUAGUCGCAAC [Fam3.1 aminoacylation ribozyme variant] | 1.13

Okay, next one:
stdin: Bench note: what self-aminoacylation did AGUUACCUAGGUCAUCGGGUG [Fam2.2 aminoacylation ribozyme variant] show?
stdout: 6.47

---

- Tested on: biotinyl-Ile-oxazolone
- test.summary: self-aminoacylation, catalytic enhancement (BIO) (fold over background); higher = more active; k-Seq, kA / k0A0; sequences stand for … in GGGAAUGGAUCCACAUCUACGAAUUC…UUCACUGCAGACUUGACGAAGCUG
Fewer inactive variants are shown than the library holds.
Output schema: class label derived from self-aminoacylation. Mapping: bucket 1 (below 1), bucket 2 (1 to below 4), bucket 3 (4 or more)

Use these answered entries as a reference point.
AUUCACCUAGGUCAUCGGGAU [Fam2.2 aminoacylation ribozyme variant] | bucket 2
AAGUUUGGGAAUAGUCGCAAG [Fam3.1 aminoacylation ribozyme variant] | bucket 2
AUUCAGCUAGGUCAUCGCGUG [Fam2.2 aminoacylation ribozyme variant] | bucket 3
AUUACUCGGGUCAUCGAGUGA [Fam2.1 aminoacylation ribozyme variant] | bucket 2

Query sequence follows.
stdin: Just checking, what class would you give AGUACCCUGGUCAUGGAGUGA [Fam2.1 aminoacylation ribozyme variant] here?
stdout: bucket 2

---

- Tested on: biotinyl-Val-oxazolone
- test.summary: self-aminoacylation, catalytic enhancement (BVO) (fold over background); higher = more active; k-Seq, kA / k0A0; sequences stand for … in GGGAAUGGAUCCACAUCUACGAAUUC…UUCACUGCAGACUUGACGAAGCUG
This sample holds only a part of the variants without activity.
Kindly state self-aminoacylation for each of the entries shown.
One number for each entry.

Below are worked cases with known answers.
CUACAUCAAAAAAUCGGUCUG [Fam1A.1 aminoacylation ribozyme variant] | 0.745
AGUACCCUGGUCAUCGCGUGA [Fam2.1 aminoacylation ribozyme variant] | 12.2
CCACACUUCAUCCAAUCGGUC [Fam1B.1 aminoacylation ribozyme variant] | 0.912
AUUACUCUCGUCAUCGAGUGA [Fam2.1 aminoacylation ribozyme variant] | 2.09
AGUACCCUGGUCAGCGAGUGA [Fam2.1 aminoacylation ribozyme variant] | 3.45

For the 5 sequences below, give their self-aminoacylation values.
1. GAGUUUGCUAAUAGUCACAAG [Fam3.1 aminoacylation ribozyme variant]
2. AUUCACAUACGUCAUCGGGUG [Fam2.2 aminoacylation ribozyme variant]
3. AUCACCCUGGUCAUCGUGUGA [Fam2.1 aminoacylation ribozyme variant]
4. AAGUUUGCUACUAGUCCCAAG [Fam3.1 aminoacylation ribozyme variant]
5. AAGUUCGCUAAUGGUCGCAAG [Fam3.1 aminoacylation ribozyme variant]

stdout:
1: 1.48; 2: 4.19; 3: 2.31; 4: 0.759; 5: 1.5

For the 8 sequences below, give their self-aminoacylation values.
1. AUUCACCUAGGUCAUAGGUUG [Fam2.2 aminoacylation ribozyme variant]
2. AUUCACCUUGGUCAUCAGGUG [Fam2.2 aminoacylation ribozyme variant]
3. AUUCACCUACGUCAUCGAGUG [Fam2.2 aminoacylation ribozyme variant]
4. AAGUUUGCUAGUAGUUGCAAG [Fam3.1 aminoacylation ribozyme variant]
5. CAGUUUGCAAAUAGUCGCAAG [Fam3.1 aminoacylation ribozyme variant]
6. AUUCAUCGAGGUCAUCGGGUG [Fam2.2 aminoacylation ribozyme variant]
7. AAGUAUGCUGAUAGUCGCAAG [Fam3.1 aminoacylation ribozyme variant]
8. CUACUUCAAACAAUAGGUCUG [Fam1A.1 aminoacylation ribozyme variant]

stdout:
1. 0.77
2. 1.39
3. 2.71
4. 0.737
5. 1.52
6. 6.97
7. 1.65
8. 0.817
